Tested on: ATP;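 also: ATP exposure 15 min at 22 °C before imaging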
Experiment: switch fluorescence ratio, 500 uM ATP over buffer (Cy3 cluster intensity, sum of 5 cycles each) (fold (ratio)); higher = stronger signal-on switching upon ATP binding; sequences stand for … in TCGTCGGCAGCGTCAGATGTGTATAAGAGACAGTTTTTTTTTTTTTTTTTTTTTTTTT…TC
Settings: aptamer strand: ATP DNA aptamer (quencher-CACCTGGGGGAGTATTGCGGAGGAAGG + anchor), 100 nM annealed; ATP concentration: 500 uM
reported.property: switch fluorescence ratio
# print the numeric value only

- sequence.string: "TATTCGGAGC"
  switch fluorescence ratio: 1.01
- sequence.string: "TTGTTGCCGT"
  switch fluorescence ratio: 0.984
- sequence.string: "GATTTGGAGC"
  switch fluorescence ratio: 0.991

Value lookup for switch fluorescence ratio; key = AACCCTTTCA
1.06

Entry ACCGACCGGG : reported switch fluorescence ratio = ?
1.07

Report switch fluorescence ratio for GGGGCAGAGG please.
0.997

# query: switch fluorescence ratio of entry AGGACGGGGG
1.02

Endpoint output: switch fluorescence ratio of CGGGAAAATA . Value?
1.03

Quick one: switch fluorescence ratio of GCATCTACGG ?
1.02

Look up switch fluorescence ratio for this sequence: TTTTAGAGTA
1

Need switch fluorescence ratio of TGGTTTTTAA , thanks.
0.977

# switch fluorescence ratio lookup, item AGATGTTGGG
0.992

Request the reported switch fluorescence ratio associated with CAAGTCTATT
1.01

Consider the sequence GTGATAAGAA and give its measured switch fluorescence ratio.
1.01

Given the sequence CAGGTGAGAC , what is its reported switch fluorescence ratio?
1.31

Give the measured switch fluorescence ratio of ATCCAAGTAA .
1.04

Any idea what its switch fluorescence ratio is? The sequence is TCCGGTTGTC
1.11

Fill blank: measured switch fluorescence ratio of the sequence ATTAGGGGGA is ____.
1.03

Would you mind telling me what switch fluorescence ratio value was observed for GGGAAGAAGC ?
0.997
